system: Feline Herpes Virus; assay: organism not typed; assay type: cell-based; details: CRFK, read-out: EC50 Feline Herpes Virus
Quantity: EC50 (µM)
Numbers only, in µM.

O=c1oc2ccccc2c(O)c1C(c1ccccc1)c1c(O)c2ccccc2oc1=O
9.1
O=c1oc2ccccc2c(O)c1C(c1ccc(F)cc1)c1c(O)c2ccccc2oc1=O
8.1
Nc1nc(O)c2ncn(COC(CO)CO)c2n1 [Ganciclovir, reference compound]
4.9

Below: the item to evaluate.
Q: Quick one: EC50 for O=c1oc2ccccc2c(O)c1C(c1ccc([N+](=O)[O-])cc1)c1c(O)c2ccccc2oc1=O ?
A: 6.9

---

Kindly state pEC50 for each of the entries shown.
tested on: HSV-1 TK^− KOS ACV^r; test: microbe, parasite or virus in culture; assay type: cell-based, herpes simplex virus-1; details: Human alphaherpesvirus 1, HEL, read-out: EC50 HSV-1 TK^− KOS ACV^r
One number for each entry, as −log10 of the molar value.

Consider the worked cases shown below.
Nc1ccn(C[C@@H](CO)OCP(=O)(O)O)c(=O)n1 [Cidofovir, reference compound]
5.82
Nc1nc2c(ncn2COCCO)c(=O)[nH]1 [Acyclovir, reference compound]
4.70
Nc1nc(O)c2ncn(COC(CO)CO)c2n1 [Ganciclovir, reference compound]
7.00
O=c1[nH]c(=O)n([C@H]2C[C@H](O)[C@@H](CO)O2)cc1/C=C/Br [Brivudin, (E)-5-(2-bromovinyl)-2’-deoxyuridine, reference compound]
4.30
O=c1oc2ccccc2c(O)c1C(c1cccc(Br)c1)c1c(O)c2ccccc2oc1=O
5.05

Below: the item to evaluate.
Q: Quick one: pEC50 for O=c1oc2ccccc2c(O)c1C1c2cc([N+](=O)[O-])ccc2Oc2c1c(=O)oc1ccccc21 (stereo not shown) ?
A: 4.30
